- ASSAY_METHOD_TEXT: Pharmacokinetic profiles in rat
- EXPERIMENTAL_SETUP: in vivo, po, 20 mg/kg
QUANTITY_MEASURED: half-life (h)
Use h as the unit, but write only the number.

Reference set (2 entries):
CC(C)c1cc(C(=O)N(C)c2ccc3c(ccn3C)c2)c(O)cc1O [Compound 20g] ... 2.2
CC(C)c1cc(C(=O)N(C)c2ccc3[nH]ccc3c2)c(O)cc1O [Compound 20b] ... 7.5

So, CCN(C(=O)c1cc(C(C)C)c(O)cc1O)c1ccc2[nH]ccc2c1 [Compound 20c] ? Its half-life was 5.9

----------
- Test system: colorectal HCT116
- ASSAY_METHOD_TEXT: Sulforhodamine B (SRB) assay, colorectal HCT116
- Format: cell-based
- EXPERIMENTAL_SETUP: Homo sapiens, HCT-116; Table 1; SRB, 48 h; read-out: GI50 Colorectal HCT116
Checkbox rule: GI50 lower than 3 µM = Met; GI50 not lower than 3 µM = Not met.

Look over these answered cases.
CC(C)c1cc(C(=O)N(C)c2ccc3c(c2)CCCN3)c(O)cc1O [Compound 33a] ... Not met
CCN(C(=O)c1cc(C(C)C)c(O)cc1O)c1ncnc2c1ccn2C [Compound 27c] ... Not met
CCCN(C(=O)c1cc(C(C)C)c(O)cc1O)c1ncnc2c1ccn2C [Compound 27d] ... Not met

INPUT: Just wondering, is GI50 of CC(C)c1cc(C(=O)N(C)c2cnc3c(cnn3C)c2)c(O)cc1O [Compound 26c] below 3 µM?
OUTPUT: Met

INPUT: Just wondering, is GI50 of CC(C)c1cc(C(=O)N(c2ncnc3c2ccn3C)C(C)C)c(O)cc1O [Compound 27e] below 3 µM?
OUTPUT: Not met

INPUT: Just wondering, is GI50 of CCN(C(=O)c1cc(C(C)C)c(O)cc1O)c1cc(C)nc2ccccc12 [Compound 32c] below 3 µM?
OUTPUT: Not met

INPUT: Just wondering, is GI50 of CCCN(C(=O)c1cc(C(C)C)c(O)cc1O)c1cnc2c(ccn2C)c1 [Compound 24e] below 3 µM?
OUTPUT: Not met

INPUT: Just wondering, is GI50 of CCCN(C(=O)c1cc(C(C)C)c(O)cc1O)c1cnc2c(cnn2C)c1 [Compound 26e] below 3 µM?
OUTPUT: Not met

INPUT: Just wondering, is GI50 of CC(C)c1cc(C(=O)N(c2cnc3c(ccn3C)c2)C(C)C)c(O)cc1O [Compound 24f] below 3 µM?
OUTPUT: Not met

INPUT: Just wondering, is GI50 of CCN(C(=O)c1cc(C(C)C)c(O)cc1O)c1cnc2c(ccn2C)c1 [Compound 24d] below 3 µM?
OUTPUT: Met

INPUT: Just wondering, is GI50 of CC(C)c1cc(C(=O)N(C)c2cccc3ncccc23)c(O)cc1O [Compound 29b] below 3 µM?
OUTPUT: Not met

INPUT: Just wondering, is GI50 of CC(C)c1cc(C(=O)N(C)c2ccc3c(c2)CCN3)c(O)cc1O [Compound 23b] below 3 µM?
OUTPUT: Not met

INPUT: Just wondering, is GI50 of CCN(C(=O)c1cc(C(C)C)c(O)cc1O)c1cnc2c(cnn2C)c1 [Compound 26d] below 3 µM?
OUTPUT: Met

INPUT: Just wondering, is GI50 of CC(C)c1cc(C(=O)N(c2cnc3c(cnn3C)c2)C(C)C)c(O)cc1O [Compound 26f] below 3 µM?
OUTPUT: Not met

INPUT: Just wondering, is GI50 of CC(C)c1cc(C(=O)Nc2ncnc3c2ccn3C)c(O)cc1O [Compound 27a] below 3 µM?
OUTPUT: Not met

INPUT: Just wondering, is GI50 of CC(C)c1cc(C(=O)Nc2cnc3c(cnn3C)c2)c(O)cc1O [Compound 26b] below 3 µM?
OUTPUT: Not met

INPUT: Just wondering, is GI50 of CCN(C(=O)c1cc(C(C)C)c(O)cc1O)c1ccc2c(c1)CCCN2C [Compound 33d] below 3 µM?
OUTPUT: Not met

INPUT: Just wondering, is GI50 of CCCN(C(=O)c1cc(C(C)C)c(O)cc1O)c1cnc2ccccc2c1 [Compound 28d] below 3 µM?
OUTPUT: Met

----------
- ASSAY_METHOD_TEXT: Pharmacokinetic profiles in rat
- EXPERIMENTAL_SETUP: in vivo, iv, 2 mg/kg
QUANTITY_MEASURED: half-life (h)
Use h as the unit, but write only the number.

So, CC(C)c1cc(C(=O)N(C)c2ccc3[nH]ccc3c2)c(O)cc1O [Compound 20b] ? Its half-life was 1.3

So, CC(C)c1cc(C(=O)N(C)c2ccc3c(ccn3C)c2)c(O)cc1O [Compound 20g] ? Its half-life was 0.7

So, CCN(C(=O)c1cc(C(C)C)c(O)cc1O)c1ccc2[nH]ccc2c1 [Compound 20c] ? Its half-life was 1.5

----------
- ASSAY_METHOD_TEXT: Pharmacokinetic profiles in rat
- EXPERIMENTAL_SETUP: in vivo, iv, 2 mg/kg, CL, IV (2 mg/kg)
QUANTITY_MEASURED: clearance (L/h/kg)
Use L/h/kg as the unit, but write only the number.

So, CCN(C(=O)c1cc(C(C)C)c(O)cc1O)c1ccncc1 [Compound 19b] ? Its clearance was 4.5

----------
- ASSAY_METHOD_TEXT: Pharmacokinetic profiles in rat
- EXPERIMENTAL_SETUP: in vivo, po, 20 mg/kg
QUANTITY_MEASURED: Cmax
Please make sure the unit comes right after the number.

So, CC(C)c1cc(C(=O)N(C)c2ccc3[nH]ccc3c2)c(O)cc1O [Compound 20b] ? Its Cmax was 82 ng/mL

----------
# Lookup of reported GI50 keyed by entry
- System: colorectal HCT116
- ASSAY_METHOD_TEXT: Sulforhodamine B (SRB) assay, colorectal HCT116
- Assay type: cell-based
- EXPERIMENTAL_SETUP: Homo sapiens, HCT-116; Table 1; SRB, 48 h; read-out: GI50 Colorectal HCT116

CC(C)c1cc(C(=O)Nc2cnc3c(ccn3C)c2)c(O)cc1O [Compound 24b] ... > 10 µM
CCN(C(=O)c1cc(C(C)C)c(O)cc1O)c1ccc2c(c1)CCCN2 [Compound 33b] ... 5.38 µM

So, CC(C)c1cc(C(=O)Nc2cnc3[nH]ncc3c2)c(O)cc1O [Compound 26a] ? Its GI50 was > 10 µM

----------
- ASSAY_METHOD_TEXT: Pharmacokinetic profiles in rat
- EXPERIMENTAL_SETUP: in vivo, po, 20 mg/kg, AUC(0-inf), PO (20 mg/kg)
QUANTITY_MEASURED: AUC(0-inf) (ng·h/mL)
Use ng·h/mL as the unit, but write only the number.

So, CCN(C(=O)c1cc(C(C)C)c(O)cc1O)c1ccncc1 [Compound 19b] ? Its AUC(0-inf) was 485

----------
- TARGET_OF_ASSAY: HSP90 α protein (Homo sapiens, UniProt P07900)
- ASSAY_METHOD_TEXT: HSP90 ATP-binding / fluorescence polarization competition assay (enzyme inhibition)
QUANTITY_MEASURED: pIC50
Please treat pIC50 as minus the base-10 logarithm of the molar concentration.

Reference set (3 entries):
CC(C)c1cc(C(=O)N(C)c2ccc3[nH]ccc3c2)c(O)cc1O [Compound 20b] ... 6.94
CCN(C(=O)c1cc(C(C)C)c(O)cc1O)c1cccnc1 [Compound 18b] ... 6.96
CCN(C(=O)c1cc(C(C)C)c(O)cc1O)c1ccc2[nH]ccc2c1 [Compound 20c] ... 6.93

Now look at this entry.
The measured pIC50 that CC(C)c1cc(C(=O)N(C)c2ccc3c(ccn3C)c2)c(O)cc1O [Compound 20g] showed for HSP90 α protein (Homo sapiens, UniProt P07900) is 6.98

----------
- ASSAY_METHOD_TEXT: Pharmacokinetic profiles in rat
- EXPERIMENTAL_SETUP: in vivo, oral, 20 mg/kg
QUANTITY_MEASURED: bioavailability (%)
Use % as the unit, but write only the number.

So, CCN(C(=O)c1cc(C(C)C)c(O)cc1O)c1cccnc1 [Compound 18b] ? Its bioavailability was 25

----------
- ASSAY_METHOD_TEXT: Maximum tolerated dose and therapeutic index in vivo
- EXPERIMENTAL_SETUP: in vivo, po
QUANTITY_MEASURED: MTD (mg/kg)
Use mg/kg as the unit, but write only the number.

CCN(C(=O)c1cc(C(C)C)c(O)cc1O)c1ccc2[nH]ccc2c1 [Compound 20c] ... 100

Now look at this entry.
So, CCN(C(=O)c1cc(C(C)C)c(O)cc1O)c1cccnc1 [Compound 18b] ? Its MTD was 250

Hello, the source for this data is patent US11479528B2, in case you need it.
